# Study system: platelets (human, fresh washed)
# Assay explanation: competition: soluble peptide against divalent cation-independent adhesion of platelets to coated 45 kDa
Reported metric: ED50 (µM)

A. TAVTQTYGGNSN [FN312-323]
B. TAVTQTYGGNSNGEP [FN312-326]
In terms of reported ED50, does A or B have the smaller number? Mark your selection by writing its label.
B
